Values from the EternaBench riboswitch data

# Test system: MS2 coat protein
# experimental details: apparent Kd, MS2 coat protein; higher = weaker binding; RNA-MaP array; theophylline 2 mM where present
# run conditions: designed as: OFF switch for theophylline; no ligand
measurement type: apparent Kd (nM)
# unit: nM | format: bare number

Param readout= apparent Kd; system= MS2 coat protein; entry= AGACAUGAGGAUCACCCAUGUAGUAUGGAUACCAGAUCCAGAUUUAUCCCUUGGCAGCUGUGGUACAGCGUUGCAUCGCUCCUAG ; returns value.
32.3

Likewise for UUUGCACAUGAGGAUCACCCAUGUACAGAUACCAGCCUCAUCUACGGCCCUUGGCAGCUGAGAUAAUGGUGACGUGAUGGGCUUU ?
14

And the next one, ACGAACGAUAGUGAUACCAGACGUACAUGAGGAUCACCCAUGUUAUACACAUGGUUUAUUGUCCCUUGGCAGCACGUUAAGUUCG ?
274

Param item: AUAAGUAAUGUUUCGUGUUUUAUUACAGAUACCAGACUAUACGUUGUCCCUUGGCAGCUGGAUUACAUGAGGAUCACCCAUGUUG
19.5

What would you report for GCACCAGGUACGGAUACCAGACGUUGCCAAACAGGGUGACAUGAGGAUCACCCAUGUACUGUCCCUUGGCAGCCGUACCUGGUGC ?
22.3

Query UUAUUUAUAAUGGAUACCAGUCGUAUGGCCCGGAAUCCUGACAUGAGGAUCACCCAUGUCGACCCUUGGCAGCUGUUAUGGGUUU next
14.5

Now the same for AGCCUCAUACAUGAGGAUCACCCAUGUGAUACCAGUCAGGAAACUGACCCUUGGCAGCGCAUGAGGAUCACCCAUGUGCGAGGCA
43.5

Another sequence: UCUUACUAUAGUGAUACCAGACGUACAUGAGGAUCACCCAUGUUACAUUCUUGGUUAAAAGUCCCUUGGCAGCACGAUUUGUUCG
9.28

Same read-out for UGGUUUGUGAUGGAUACCAGCAGAGAAAACGUUUAUCCUAACAUGAGGAUCACCCAUGUAUGCCCUUGGCAGCUGUUGUGGGCUA ?
32

Same lookup for CGGUUUGUGAUGGAUACCAGCAGAGAAAAUGUUUAUCCUAACAUGAGGAUCACCCAUGUGUGCCCUUGGCAGCUGUUGUGGGCUG , please.
50.5

// same read-out, input: AGACAUGAGGAUCACCCAUGUAGCAUGGAUACCAGAUCCAGAUUUAUCCCUUGGCAGCUGUGGUAAAGUGAUGGAUUGCUCCUAG
44.3

And the next one, ACCUACACGGAGACGUGUAGGAGUAAUGAUACCAGCAUGGAGACAUGCCCUUGGCAGCGUUACAUGAGGAUCACCCAUGUGGUGC ?
21.1

Query UGACAUUGCUCAGAUACCAGACAUGAGGAUCACCCAUGUACCAAGGUAACCGAAAGGCAUGUCCCUUGGCAGCUGAGCAAUGUCU next
11.1

What about UGACAUUGCUCAGAUACCAGACAUGAGGAUCACCCAUGUACCGAGGUACCCGAAAGGAAUGUCCCUUGGCAGCUGAGCAAUGUCU ?
10.9
